Quick reference for IC50 among some binders
- assayed.system: T1, human GM-CSF (human, UniProt P04141 18-144)
- T1 construct: mature; the preparation is named under assay or readout; also called hGM-CSF; recombinant human GM-CSF
- T1 sequence (P04141 18-144): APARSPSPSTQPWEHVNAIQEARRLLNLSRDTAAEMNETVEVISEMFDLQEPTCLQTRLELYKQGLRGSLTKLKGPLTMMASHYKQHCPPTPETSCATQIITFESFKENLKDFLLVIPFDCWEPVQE
- procedure.details: FACS receptor inhibition assay: antibody pre-incubated with 0.5 µg/ml biotinylated GM-CSF, binding to GM-CSF receptor alpha on CHO-GMRa#11 cells
Provide the reading as a plain figure in nM.

Example cases with answers are listed next.
MOR04290 Fab (Fab, V domains shown, Fab with FLAG and 6xHis tags) VH: QVQLVESGGGLVQPGGSLRLSCAASGFTFSSYWMNWVRQAPGKGLEWVSGIESKWAGGATYYAAGVKGRFTISRDNSKNTLYLQMNSLRAEDTAVYYCARGFGTDFWGQGTLVTVSS VL: DIELTQPPSVSVAPGQTARISCSGDSIGKKYAYWYQQKPGQAPVLVIYKKRPSGIPERFSGSNSGNTATLTISGTQAEDEADYYCSSWDSTGLVFGGGTKLTVLG :: 27
MOR04287 Fab (Fab, V domains shown, Fab with FLAG and 6xHis tags) VH: QVQLVESGGGLVQPGGSLRLSCAASGFTFSSYWMNWVRQAPGKGLEWVSGIENKRAGGATFYAASVKGRFTISRDNSKNTLYLQMNSLRAEDTAVYYCARGFGTDFWGQGTLVTVSS VL: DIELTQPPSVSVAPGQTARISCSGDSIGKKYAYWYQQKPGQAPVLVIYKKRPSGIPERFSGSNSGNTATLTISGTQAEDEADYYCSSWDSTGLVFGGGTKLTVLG :: 25

Next item in the queue.
State, in one line, measured IC50 of MOR04354 Fab (Fab, V domains shown, X-cloned Fab (VH of MOR04290 x VL of MOR04302) with FLAG and 6xHis tags) VH: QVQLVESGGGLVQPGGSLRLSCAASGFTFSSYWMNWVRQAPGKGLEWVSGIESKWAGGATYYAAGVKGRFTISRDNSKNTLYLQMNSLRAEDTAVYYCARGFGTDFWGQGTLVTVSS VL: DIELTQPPSVSVAPGQTARISCSGDSIGKKYAYWYQQKPGQAPVLVIYKKRPSGIPERFSGSNSGNTATLTISGTQAEDEADYYCSAWGDKGMVFGGGTKLTVLG
26
